The values you see were collected from the supplement of paper PMC10065799.

# study-system: EPHB1 (UniProt P54762)
# Sequence (P54762 whole entry, looked up): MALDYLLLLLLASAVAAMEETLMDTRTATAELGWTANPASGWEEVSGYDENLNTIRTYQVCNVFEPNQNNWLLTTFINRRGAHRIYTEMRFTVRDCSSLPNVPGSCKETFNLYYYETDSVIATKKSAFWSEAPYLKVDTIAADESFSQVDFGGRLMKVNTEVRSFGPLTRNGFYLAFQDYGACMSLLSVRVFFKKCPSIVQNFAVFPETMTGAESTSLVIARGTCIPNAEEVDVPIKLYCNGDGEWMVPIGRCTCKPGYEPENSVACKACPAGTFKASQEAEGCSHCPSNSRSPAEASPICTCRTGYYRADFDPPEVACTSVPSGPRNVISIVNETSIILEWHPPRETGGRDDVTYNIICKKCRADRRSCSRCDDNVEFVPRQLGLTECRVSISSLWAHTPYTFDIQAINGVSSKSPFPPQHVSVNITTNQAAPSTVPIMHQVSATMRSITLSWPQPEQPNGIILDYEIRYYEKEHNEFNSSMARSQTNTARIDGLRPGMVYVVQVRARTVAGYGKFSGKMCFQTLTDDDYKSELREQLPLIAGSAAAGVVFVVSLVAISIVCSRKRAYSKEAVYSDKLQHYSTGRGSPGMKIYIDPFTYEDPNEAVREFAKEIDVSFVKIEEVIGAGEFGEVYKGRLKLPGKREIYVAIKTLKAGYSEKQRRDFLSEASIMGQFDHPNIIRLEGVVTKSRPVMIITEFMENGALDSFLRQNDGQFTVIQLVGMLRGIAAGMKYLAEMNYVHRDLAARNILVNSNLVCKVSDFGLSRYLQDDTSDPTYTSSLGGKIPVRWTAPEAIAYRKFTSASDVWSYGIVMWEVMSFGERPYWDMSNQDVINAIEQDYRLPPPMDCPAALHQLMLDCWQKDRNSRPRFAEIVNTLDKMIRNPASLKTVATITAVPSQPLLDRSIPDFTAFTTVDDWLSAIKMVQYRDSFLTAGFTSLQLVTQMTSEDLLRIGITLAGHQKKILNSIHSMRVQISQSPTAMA
# assay-summary: phosphorylation enrichment, bacterial display (enrichment ratio); higher = better substrate or ligand; peptides without Tyr show the background;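 note: 11-residue human phosphosite peptides and single-mutation variants displayed on the E. coli surface, counted by deep sequencing, each peptide's frequency after selection divided by its frequency in the unselected input library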;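 note: frequency after pTyr selection over input frequency; kinase dosed for 20-30% of maximal phosphorylation in three min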
Please provide measured phosphorylation enrichment for the entries that follow.
# answer = number (no unit)

Q. Identify measured phosphorylation enrichment corresponding to LFCVHYFHRTF [SRD5A2_Y91]
A. 1.26

Q. Identify measured phosphorylation enrichment corresponding to TPSGNYVACGG [GNB1_Y111_A106T]
A. 0.771

Q. Identify measured phosphorylation enrichment corresponding to PVGVLYEVKVF [PTS_Y128_K129E_YF]
A. 1.5

Q. Identify measured phosphorylation enrichment corresponding to NACGLYHKMNG [GATA5_Y216]
A. 0.508

Q. Identify measured phosphorylation enrichment corresponding to IPPRRYFCSGV [STAMBP_Y36_R38C]
A. 0.342

Q. Identify measured phosphorylation enrichment corresponding to FHKALYTVRSY [PDE6C_Y266]
A. 0.534

Q. Identify measured phosphorylation enrichment corresponding to KCCCIYEKPRA [PPP1R11_Y64]
A. 1.07
